This collection of values is drawn from the supplement of paper PMC6757056.

B1: library; a variant is named by its letters at N, in order (parent)
chain: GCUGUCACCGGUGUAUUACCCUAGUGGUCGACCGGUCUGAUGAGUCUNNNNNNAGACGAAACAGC

variants of: B1; assay: normalized RNA/DNA level with ligand (relative to sTRSVctl = 100) (log10 (% of sTRSVctl)); ligand: hypoxanthine (xanthine aptamer); higher = less ribozyme self-cleavage, higher mRNA level; conditions: ligand concentration (+) RNA-Seq: 5 mM, HEK293T, reporter: mCherry (pCS4076), ligand present: yes
Experimental Readout: normalized RNA/DNA level with ligand (log10)

>>> recorded_measurement("GUCGGG")
1.88
>>> recorded_measurement("CACCUG")
2.01
>>> recorded_measurement("AUUGAG")
1.82
>>> recorded_measurement("GGCCAA")
1.93
>>> recorded_measurement("CUCAGU")
1.97
>>> recorded_measurement("GUGGUC")
1.96
>>> recorded_measurement("CUUCCC")
1.9
>>> recorded_measurement("AUCUUG")
1.85
>>> recorded_measurement("AGAAUC")
1.94
>>> recorded_measurement("CGUGAU")
1.9
>>> recorded_measurement("GCGGAG")
1.66
>>> recorded_measurement("GCUGCA")
1.98
>>> recorded_measurement("CCAUAC")
1.9
>>> recorded_measurement("UCUGCG")
2.01
>>> recorded_measurement("UGUUGC")
1.94
>>> recorded_measurement("GGGACU")
1.87
>>> recorded_measurement("CGACCC")
2.03
>>> recorded_measurement("GACAGA")
1.91
>>> recorded_measurement("CCCCGA")
1.95
>>> recorded_measurement("GGCUUA")
1.97
>>> recorded_measurement("GAAAGG")
1.74
>>> recorded_measurement("CGAUGU")
1.98
>>> recorded_measurement("UGGGUG")
1.97
>>> recorded_measurement("GAACUC")
1.94
>>> recorded_measurement("CACUUC")
1.88
>>> recorded_measurement("UGGCCU")
1.98
>>> recorded_measurement("AUCGUU")
1.98
>>> recorded_measurement("UAGAUA")
1.92
>>> recorded_measurement("GCUUGC")
1.96
>>> recorded_measurement("CUCCGC")
1.97
>>> recorded_measurement("CGUAUU")
1.96
>>> recorded_measurement("GGUCCG")
2.01
>>> recorded_measurement("CUUUUA")
1.92
>>> recorded_measurement("AGGUAC")
1.89
>>> recorded_measurement("CAAAAG")
1.87
>>> recorded_measurement("UUUUUG")
1.98
>>> recorded_measurement("GAUCAG")
1.92
>>> recorded_measurement("CCAGGU")
1.99
>>> recorded_measurement("GUGAGA")
1.86
>>> recorded_measurement("GUAGCG")
1.87
>>> recorded_measurement("UAUGCA")
1.88
>>> recorded_measurement("AAAACG")
1.85
>>> recorded_measurement("CUUGAU")
1.94
>>> recorded_measurement("AACCAG")
1.82
>>> recorded_measurement("GUUGAU")
1.94
